System: PC-3 prostate
test: NCI tumour cell line growth inhibition, 48 h
valueKind: TGI (µM)
Report as a plain number; the unit µM is understood.

Solved entries (count: 3):
Nc1c(C(=O)c2ccc(Cl)c(Cl)c2)[nH]c(NCc2ccccc2)c1C(=S)Nc1ccccc1	30.5
CCC1(O)CC(CCN(Cc2ccccc2)C(=O)OCc2ccccc2)C(OCc2ccccc2)C1O (stereo not given)	23.2
COC1/C=C/C(C)C(O)CC(O)/C=C/C(C)C(C(C)C(OC)C(C)CCC(=O)C(C)C(C/C=C/N(C)C=O)OC)OC(=O)/C=C/C=C(\C)CC(OC)CC2=CC(=O)O[C@@H](C(C)C(OC)C1)[C@H]2O (stereo not given in full)	0.131

Problem: Item: COc1nc(Cl)nc(N[C@H](C)c2c3ccccc3cc3ccccc23)n1 Test system: PC-3 prostate Read-out: TGI Value: ?
Result: 31.5

Reference for the values: PubChem BioAssay (NCI)
